System tested: His-tagged human recombinant kinase full-length Akt1 (Homo sapiens (Human), UniProt P31749)
Sequence (P31749 whole entry): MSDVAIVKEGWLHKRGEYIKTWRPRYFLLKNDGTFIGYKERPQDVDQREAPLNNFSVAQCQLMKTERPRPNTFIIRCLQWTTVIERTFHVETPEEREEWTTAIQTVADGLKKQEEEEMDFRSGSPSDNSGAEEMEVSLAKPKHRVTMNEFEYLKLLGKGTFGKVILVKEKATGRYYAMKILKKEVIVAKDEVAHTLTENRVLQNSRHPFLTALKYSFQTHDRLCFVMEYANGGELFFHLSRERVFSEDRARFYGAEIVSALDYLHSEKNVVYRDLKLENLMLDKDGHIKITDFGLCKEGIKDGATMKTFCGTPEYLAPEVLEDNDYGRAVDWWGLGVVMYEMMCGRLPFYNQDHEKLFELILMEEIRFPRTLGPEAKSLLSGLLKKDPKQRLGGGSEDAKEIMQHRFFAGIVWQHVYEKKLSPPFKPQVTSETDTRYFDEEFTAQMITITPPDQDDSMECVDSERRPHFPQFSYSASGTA
Test description: Akt1 kinase assay (Akt1 TR-FRET assay, Biological Assay 1.0)
Details: 10 μM ATP, 1 μM biotinylated peptide substrate, 60 min at 22° C.
Recorded endpoint: pIC50
# pIC50 is unitless: minus log10 of the molar concentration; print number only

Past entries and their recorded results:
{"Compound": "CNc1c(-c2ccccc2)c(-c2ccc(CN3CC(c4n[nH]c(-c5ccccn5)n4)C3)cc2)nc2nc(-c3ccccn3)nn12 [Example 67.0]", "pIC50": 7.54}
{"Compound": "COC(=O)c1cn2cc(-c3ccccc3)c(-c3ccc(CN4CC(c5n[nH]c(-c6cccc(C)n6)n5)C4)cc3)nc2n1 [Example 74.0]", "pIC50": 7.92}

I have this compound here, OCc1cnn2cc(-c3c(F)cccc3F)c(-c3ccc(CN4CC(c5n[nH]c(-c6ccccn6)n5)C4)cc3)nc12 [Example 62.0] , and I need its recorded pIC50.
7.26

// lookup pIC50 for Brc1cnc2nc(-c3ccc(CN4CC(c5n[nH]c(-c6ccccn6)n5)C4)cc3)c(-c3ccccc3)cn12 [Example 55.0]
8.22
